- assay_target: DR2a (DRB5*01:01) (Homo sapiens, UniProt P01903+Q30154)
- procedure_details: fluorescence polarization competition binding assay, DR2a
No end group written: not given here.
reported_metric: IC50 (µM)
Quick note: give the figure in µM, leave out the unit.

Quick one: IC50 for EGQQIIFYEGVNFTP [Peptide P8] ?
5.68

---

- assay_target: DR2a (DRB5*01:01) (Homo sapiens, UniProt P01903+Q30154)
- procedure_details: fluorescence polarization competition binding assay, DR2a
- test_context: fluorescence polarization competition; […]; mean of two independent experiments; read-out: Mean IC50, DR2a (DRB5*01:01)
No end group written: not given here.
reported_metric: IC50 (µM)
Quick note: give the figure in µM, leave out the unit.

Quick one: IC50 for QGLPNNTASWFTALTQH [N#7 (CoV2)] ?
204

---

Form field: IC50 (one value per entry).
- assay_target: DR2b (DRB1*15:01) (Homo sapiens, UniProt P01903+P01911)
- Construct: Soluble DRB1*15:01 and DRB5*01:01 with a covalently linked CLIP peptides; covalently linked CLIP peptide (3C-protease-cleavable linker) (cleaved yes); purchased NIH Tetramer Core Facility / Emory University (a gift of Drs. John Altman and Richard Willis, not bought)
- procedure_details: fluorescence polarization competition binding assay, DR2b
- test_context: mean of two independent experiments
No end group written: not given here.
Quick note: give the figure in µM, leave out the unit.

Below, each entry is followed by its recorded IC50 result.
[
  {
    "sequence_data": "QGLPNNTASWFTALTQH [N#7 (CoV2)]",
    "IC50, µM": 507
  },
  {
    "sequence_data": "LFYTQVYKNMAVYRS [Peptide P9]",
    "IC50, µM": 0.22
  }
]

Now let's try a different one.
Quick one: IC50 for EGQQIIFYEGVNFTP [Peptide P8] ?
0.23

---

- assay_target: DP4.1 (HLA-DPA1*01:03/DPB1*04:01) (Homo sapiens, UniProt P04440+P20036)
- procedure_details: fluorescence polarization competition binding assay, DP4.1
- test_context: fluorescence polarization competition; soluble DP4.1-Clip 250 nM, 25 nM Alexa488 oxytocinase probe peptide, 500 nM HLA-DM, 24 h 37°C; mean of two independent experiments; read-out: Mean IC50, DPA*01:03/DPB1*04:01
No end group written: not given here.
Form field: IC50 (one value per entry).
Reply with a number, then the unit it belongs to.

[
  {
    "sequence_data": "YVYSRVKNLNSSRVPDL [E#9 (CoV2)]",
    "assay_target": "DP4.1 (HLA-DPA1*01:03/DPB1*04:01) (Homo sapiens, UniProt P04440+P20036)",
    "reported_metric": "IC50",
    "reported_measurement": "661 µM"
  }
]

Now let's try a different one.
Quick one: IC50 for PSASAFFGMSRIGMEVT [N#45 (CoV2)] ?
544 µM

---

- assay_target: DP4.1 (HLA-DPA1*01:03/DPB1*04:01) (Homo sapiens, UniProt P04440+P20036)
- procedure_details: fluorescence polarization competition binding assay, DP4.1
Form field: pIC50 (one value per entry).
A value of pIC50 is the negative decimal logarithm of a concentration given in moles per litre.

Below, each entry is followed by its recorded pIC50 result.
[
  {
    "molecule": "CC(C)C[C@H](NC(=O)[C@H](CCCCN)NC(=O)[C@@H](NC(=O)[C@H](CCCCN)NC(=O)[C@H](CC(=O)O)NC(=O)[C@H](Cc1ccccc1)NC(=O)[C@H](CC(C)C)NC(=O)[C@H](CC(C)C)NC(=O)[C@H](CC(=O)O)NC(=O)[C@H](CCC(=O)O)NC(=O)[C@H](Cc1ccccc1)NC(=O)[C@H](Cc1ccccc1)NC(=O)[C@H](CO)NC(=O)[C@H](CCCNC(=N)N)NC(=O)[C@H](CO)NC(=O)[C@H](CO)NC(=O)[C@@H](N)CO)C(C)C)C(=O)O [HKU1-151]",
    "reported_measurement": 5.59
  },
  {
    "molecule": "CC[C@H](C)[C@H](NC(=O)[C@H](C)NC(=O)[C@H](CO)NC(=O)[C@H](CCCNC(=N)N)NC(=O)CNC(=O)[C@H](C)NC(=O)[C@@H](NC(=O)[C@@H](N)CCCNC(=N)N)C(C)C)C(=O)N[C@@H](CCC(=O)O)C(=O)N[C@@H](CC(=O)O)C(=O)N[C@H](C(=O)N[C@@H](CC(C)C)C(=O)N[C@@H](Cc1ccccc1)C(=O)N[C@@H](CO)C(=O)N[C@@H](CCCCN)C(=O)N[C@@H](CC(C)C)C(=O)N[C@H](C(=O)O)C(C)C)[C@@H](C)CC [Peptide 229E-115]",
    "reported_measurement": 5.22
  }
]

Now let's try a different one.
Quick one: pIC50 for CC[C@H](C)[C@H](NC(=O)CNC(=O)[C@H](CC(N)=O)NC(=O)[C@@H](NC(=O)[C@H](Cc1ccccc1)NC(=O)[C@H](CC(=O)O)NC(=O)[C@H](CO)NC(=O)[C@@H](N)CC(C)C)[C@@H](C)CC)C(=O)N[C@@H](Cc1ccccc1)C(=O)N[C@@H](C)C(=O)N[C@@H](CCCCN)C(=O)N[C@H](C(=O)N[C@@H](CCCCN)C(=O)N[C@@H](CC(N)=O)C(=O)N[C@H](C(=O)N[C@@H](CCCCN)C(=O)O)[C@@H](C)O)C(C)C [Peptide P3] ?
5.50
